tested.system: UniProtKB P21554
protocol.text: Yeast ZsGreen reporter strain with N-terminally truncated CB1R
setup.conditions: Δ89-CB1R in yeast, 8 h, n = 3; read-out: EC50, ACEA dose response
pEC50: −log10 of the molar value.
experimental.endpoint: pEC50

> print(dat)
                                   compound  reported.result
1  CCCCC/C=C\C/C=C\C/C=C\C/C=C\CCCC(=O)NCCCl [ACEA, Arachidonyl-2′-chloroethylamide]             5.30

----------
tested.system: syn-pre-pro-Δ89-CB1R (Homo sapiens)
Construct: expressed in transfected cells; host or cells: Saccharomyces cerevisiae BY4741-derived ZsGreen reporter strain (Gpa1-Gαi3 chimera; also sterol-modified strains ST01–ST15)
protocol.text: syn-pre-pro-Δ89-CB1R dose response in sterol-modified yeast strains ST01–ST15
Type: cell-based
setup.conditions: Strain ST02; read-out: EC50
Source text: Ergosterol and cholesterol share a common zymosterol precursor that can be converted to cholesterol through a four-enzyme pathway that produces seven downstream metabolites (Figure 2b). […] We then performed dose response experiments with ACEA and measured the ZsGreen via fluorescent cytometry. […]
experimental.endpoint: EC50

> print(dat)
                                   compound                        tested.system  reported.result
1  CCCCC/C=C\C/C=C\C/C=C\C/C=C\CCCC(=O)NCCCl [ACEA, Arachidonyl-2′-chloroethylamide]  syn-pre-pro-Δ89-CB1R (Homo sapiens)           305 nM

----------
Quick list: EC50 per entry.
tested.system: syn-pre-pro-Δ89-CB1R (Homo sapiens, UniProt P21554)
Construct: expressed in transfected cells; host or cells: Saccharomyces cerevisiae BY4741-derived ZsGreen reporter strain (Gpa1-Gαi3 chimera; also sterol-modified strains ST01–ST15)
Sequence (P21554 90-472 limits assumed, stated change not applied): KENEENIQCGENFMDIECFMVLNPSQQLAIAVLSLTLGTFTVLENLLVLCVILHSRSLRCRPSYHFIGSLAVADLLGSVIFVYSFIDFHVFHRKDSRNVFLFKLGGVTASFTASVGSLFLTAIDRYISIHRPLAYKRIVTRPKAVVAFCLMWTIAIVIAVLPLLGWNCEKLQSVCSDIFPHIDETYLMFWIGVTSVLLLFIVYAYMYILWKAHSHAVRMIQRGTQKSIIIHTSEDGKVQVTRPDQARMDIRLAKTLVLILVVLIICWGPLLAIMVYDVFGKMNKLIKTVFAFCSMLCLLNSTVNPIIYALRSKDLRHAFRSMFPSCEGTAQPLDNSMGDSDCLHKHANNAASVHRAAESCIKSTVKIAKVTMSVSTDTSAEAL
protocol.text: cell-based
Type: cell-based
setup.conditions: Supplementary Table S2; read-out: EC50 (M) Yeast CB1R
experimental.endpoint: EC50 (M)

> print(dat)
                                   molecule  reported.result
1  CC(C)[C@H](NC(=O)c1cn(Cc2ccccc2)c2ccccc12)C(N)=O         5.66e-09
2  O=C(Oc1cccc2cnccc12)c1cn(CCCCCF)c2ccccc12 [5-fluoro PB-22 5-hydroxyisoquinoline isomer]         9.09e-12
3  CCCCCn1nc(C(=O)NC(C(N)=O)C(C)(C)C)c2ccccc21 (stereo not shown)         8.34e-12
4  CCCC(NC(=O)c1nn(Cc2ccc(F)cc2)c2ccccc12)C(N)=O (single isomer, unassigned) [AB-FUBINACA isomer 1]         4.74e-10

----------
tested.system: syn-pre-pro-Δ89-CB1R (Homo sapiens, UniProt P21554)
Construct: expressed in transfected cells; host or cells: Saccharomyces cerevisiae BY4741-derived ZsGreen reporter strain (Gpa1-Gαi3 chimera; also sterol-modified strains ST01–ST15)
protocol.text: cell-based
Type: cell-based
setup.conditions: EC50, dose response
pEC50: −log10 of the molar value.
experimental.endpoint: pEC50

> print(dat)
                                   compound  experimental.endpoint  reported.result
1  CC(C)C(NC(=O)c1nn(Cc2ccc(F)cc2)c2ccccc12)C(N)=O (stereo not shown)                  pEC50             9.18

----------
tested.system: syn-pre-pro-Δ89-CB1R (Homo sapiens, UniProt P21554)
Construct: expressed in transfected cells; host or cells: Saccharomyces cerevisiae BY4741-derived ZsGreen reporter strain (Gpa1-Gαi3 chimera; also sterol-modified strains ST01–ST15)
protocol.text: syn-pre-pro-Δ89-CB1R dose response in sterol-modified yeast strains ST01–ST15
Format: cell-based
setup.conditions: cholesterol intermediate strain ST07, text value; read-out: EC50
Excerpt: Ergosterol and cholesterol share a common zymosterol precursor that can be converted to cholesterol through a four-enzyme pathway that produces seven downstream metabolites (Figure 2b). […] We then performed dose response experiments with ACEA and measured the ZsGreen via fluorescent cytometry. […]
pEC50: −log10 of the molar value.
experimental.endpoint: pEC50

> print(dat)
                                   molecule  experimental.endpoint  reported.result
1  CCCCC/C=C\C/C=C\C/C=C\C/C=C\CCCC(=O)NCCCl [ACEA, Arachidonyl-2′-chloroethylamide]                  pEC50             7.19

----------
tested.system: syn-pre-pro-Δ89-CB1R (Homo sapiens, UniProt P21554)
Construct: expressed in transfected cells; host or cells: Saccharomyces cerevisiae BY4741-derived ZsGreen reporter strain (Gpa1-Gαi3 chimera; also sterol-modified strains ST01–ST15)
protocol.text: syn-pre-pro-Δ89-CB1R dose response in sterol-modified yeast strains ST01–ST15
Type: cell-based
setup.conditions: Strain ST10; read-out: EC50
Excerpt: Ergosterol and cholesterol share a common zymosterol precursor that can be converted to cholesterol through a four-enzyme pathway that produces seven downstream metabolites (Figure 2b). […] We then performed dose response experiments with ACEA and measured the ZsGreen via fluorescent cytometry. […]
experimental.endpoint: EC50

> print(dat)
                                   compound                             tested.system  experimental.endpoint  reported.result
1  CCCCC/C=C\C/C=C\C/C=C\C/C=C\CCCC(=O)NCCCl [ACEA, Arachidonyl-2′-chloroethylamide]  syn-pre-pro-Δ89-CB1R (Homo sapiens, UniProt P21554)                   EC50           253 nM

----------
tested.system: syn-pre-pro-Δ89-CB1R (Homo sapiens)
Construct: expressed in transfected cells; host or cells: Saccharomyces cerevisiae BY4741-derived ZsGreen reporter strain (Gpa1-Gαi3 chimera; also sterol-modified strains ST01–ST15)
protocol.text: syn-pre-pro-Δ89-CB1R dose response in sterol-modified yeast strains ST01–ST15
Format: cell-based
setup.conditions: Strain ST05; read-out: EC50
experimental.endpoint: EC50 (nM)

> print(dat)
                                   molecule                        tested.system  reported.result
1  CCCCC/C=C\C/C=C\C/C=C\C/C=C\CCCC(=O)NCCCl [ACEA, Arachidonyl-2′-chloroethylamide]  syn-pre-pro-Δ89-CB1R (Homo sapiens)              107

----------
tested.system: syn-pre-pro-Δ89-CB1R (Homo sapiens)
Construct: expressed in transfected cells; host or cells: Saccharomyces cerevisiae BY4741-derived ZsGreen reporter strain (Gpa1-Gαi3 chimera; also sterol-modified strains ST01–ST15)
protocol.text: syn-pre-pro-Δ89-CB1R dose response in sterol-modified yeast strains ST01–ST15
Format: cell-based
setup.conditions: Strain ST04; read-out: EC50
experimental.endpoint: EC50 (nM)

> print(dat)
                                   molecule                        tested.system  value.unit  reported.result
1  CCCCC/C=C\C/C=C\C/C=C\C/C=C\CCCC(=O)NCCCl [ACEA, Arachidonyl-2′-chloroethylamide]  syn-pre-pro-Δ89-CB1R (Homo sapiens)          nM               96

----------
tested.system: syn-pre-pro-Δ89-CB1R (Homo sapiens, UniProt P21554)
Construct: expressed in transfected cells; host or cells: Saccharomyces cerevisiae BY4741-derived ZsGreen reporter strain (Gpa1-Gαi3 chimera; also sterol-modified strains ST01–ST15)
protocol.text: syn-pre-pro-Δ89-CB1R dose response in sterol-modified yeast strains ST01–ST15
Assay type: cell-based
setup.conditions: mean over ST01–ST15; read-out: average EC50 value across the intermediate strains
pEC50: −log10 of the molar value.
experimental.endpoint: pEC50

> print(dat)
                                   molecule  experimental.endpoint  reported.result
1  CCCCC/C=C\C/C=C\C/C=C\C/C=C\CCCC(=O)NCCCl [ACEA, Arachidonyl-2′-chloroethylamide]                  pEC50             6.70

----------
tested.system: syn-pre-pro-Δ89-CB1R (Homo sapiens)
Construct: expressed in transfected cells; host or cells: Saccharomyces cerevisiae BY4741-derived ZsGreen reporter strain (Gpa1-Gαi3 chimera; also sterol-modified strains ST01–ST15)
protocol.text: syn-pre-pro-Δ89-CB1R dose response in sterol-modified yeast strains ST01–ST15
Type: cell-based
setup.conditions: Strain ST06; read-out: EC50
experimental.endpoint: EC50 (nM)

> print(dat)
                                   compound  experimental.endpoint  reported.result
1  CCCCC/C=C\C/C=C\C/C=C\C/C=C\CCCC(=O)NCCCl [ACEA, Arachidonyl-2′-chloroethylamide]                   EC50               74

----------
tested.system: syn-pre-pro-Δ89-CB1R (Homo sapiens)
Construct: expressed in transfected cells; host or cells: Saccharomyces cerevisiae BY4741-derived ZsGreen reporter strain (Gpa1-Gαi3 chimera; also sterol-modified strains ST01–ST15)
protocol.text: syn-pre-pro-Δ89-CB1R dose response in sterol-modified yeast strains ST01–ST15
Format: cell-based
setup.conditions: Strain ST14; read-out: EC50
experimental.endpoint: EC50

> print(dat)
                                   compound  reported.result
1  CCCCC/C=C\C/C=C\C/C=C\C/C=C\CCCC(=O)NCCCl [ACEA, Arachidonyl-2′-chloroethylamide]           640 nM
